The measurements presented in this section are drawn from patent EP1327680B1.

This listing pairs binders with measured ED50, TPO-like agonist activity, proliferation of BaF/mpl cells (WST-8).
- tested-system: T1, human TPO receptor (MPL) expressed on Ba/F3 cells (human, UniProt P40238 26-635)
- T1 sequence (looked up): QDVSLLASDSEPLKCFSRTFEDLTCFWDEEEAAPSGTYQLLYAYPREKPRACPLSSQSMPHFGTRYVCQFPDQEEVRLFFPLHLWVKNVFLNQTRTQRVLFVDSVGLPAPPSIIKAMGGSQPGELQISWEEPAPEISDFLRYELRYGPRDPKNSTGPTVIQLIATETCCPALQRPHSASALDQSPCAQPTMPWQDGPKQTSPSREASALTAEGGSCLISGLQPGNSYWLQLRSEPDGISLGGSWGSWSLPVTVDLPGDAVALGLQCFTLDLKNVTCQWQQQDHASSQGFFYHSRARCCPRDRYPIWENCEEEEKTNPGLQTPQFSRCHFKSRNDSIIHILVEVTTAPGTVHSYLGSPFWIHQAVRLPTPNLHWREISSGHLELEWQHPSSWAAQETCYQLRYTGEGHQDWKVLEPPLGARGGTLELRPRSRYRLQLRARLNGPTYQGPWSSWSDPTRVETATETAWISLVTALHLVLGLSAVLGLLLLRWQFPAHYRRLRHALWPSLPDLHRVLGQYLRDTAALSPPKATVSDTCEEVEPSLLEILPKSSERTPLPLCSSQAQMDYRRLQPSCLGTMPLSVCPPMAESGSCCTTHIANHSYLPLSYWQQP
- measurement-protocol: cell-based or functional assay
# value in nM; strip the unit string

>  <binder>
antibody 12B5 (IgG) (antibody, V domains shown) VH: QVQLVQSGGGLVRPGGSLSLSCAVSGITLRTYGMHWVRQAPGKGLEWVAGISFDGRSEYYADSVQGRFTISRDSSKNTLYLQMNSLRAEDTAVYYCARGAHYGFDIWGQGTMVTVSS VL: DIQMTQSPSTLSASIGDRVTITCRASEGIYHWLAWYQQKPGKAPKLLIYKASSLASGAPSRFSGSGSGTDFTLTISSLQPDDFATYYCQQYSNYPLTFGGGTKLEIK

>  <measured-result>
29

$$$$
>  <binder>
reconstructed 12B5 single chain Fv (sc12B5), culture supernatant of COS-7 cells (scFv) scFv: QVQLVQSGGGLVRPGGSLSLSCAVSGITLRTYGMHWVRQAPGKGLEWVAGISFDGRSEYYADSVQGRFTISRDSSKNTLYLQMNSLRAEDTAVYYCARGAHYGFDIWGQGTMVTVSSGGGGSGGGGSGGGGSDIQMTQSPSTLSASIGDRVTITCRASEGIYHWLAWYQQKPGKAPKLLIYKASSLASGAPSRFSGSGSGTDFTLTISSLQPDDFATYYCQQYSNYPLTFGGGTKLEIKDYKDDDDK

>  <measured-result>
75

$$$$
>  <binder>
sc12B5 monomer (scFv) scFv: QVQLVQSGGGLVRPGGSLSLSCAVSGITLRTYGMHWVRQAPGKGLEWVAGISFDGRSEYYADSVQGRFTISRDSSKNTLYLQMNSLRAEDTAVYYCARGAHYGFDIWGQGTMVTVSSGGGGSGGGGSGGGGSDIQMTQSPSTLSASIGDRVTITCRASEGIYHWLAWYQQKPGKAPKLLIYKASSLASGAPSRFSGSGSGTDFTLTISSLQPDDFATYYCQQYSNYPLTFGGGTKLEIKDYKDDDDK

>  <measured-result>
4440

$$$$

# input for lookup
# ED50, TPO-like agonist activity, proliferation of BaF/mpl cells (WST-8) lookup, item sc12B5 dimer (scFv) scFv: QVQLVQSGGGLVRPGGSLSLSCAVSGITLRTYGMHWVRQAPGKGLEWVAGISFDGRSEYYADSVQGRFTISRDSSKNTLYLQMNSLRAEDTAVYYCARGAHYGFDIWGQGTMVTVSSGGGGSGGGGSGGGGSDIQMTQSPSTLSASIGDRVTITCRASEGIYHWLAWYQQKPGKAPKLLIYKASSLASGAPSRFSGSGSGTDFTLTISSLQPDDFATYYCQQYSNYPLTFGGGTKLEIKDYKDDDDK
10.1
